Experiment: self-splicing fitness, log relative to wild type (ln ratio); higher = more splicing; Tetrahymena group I intron in knt gene, E. coli kanamycin selection, DiMSum; sequences stand for … in CUCUCU…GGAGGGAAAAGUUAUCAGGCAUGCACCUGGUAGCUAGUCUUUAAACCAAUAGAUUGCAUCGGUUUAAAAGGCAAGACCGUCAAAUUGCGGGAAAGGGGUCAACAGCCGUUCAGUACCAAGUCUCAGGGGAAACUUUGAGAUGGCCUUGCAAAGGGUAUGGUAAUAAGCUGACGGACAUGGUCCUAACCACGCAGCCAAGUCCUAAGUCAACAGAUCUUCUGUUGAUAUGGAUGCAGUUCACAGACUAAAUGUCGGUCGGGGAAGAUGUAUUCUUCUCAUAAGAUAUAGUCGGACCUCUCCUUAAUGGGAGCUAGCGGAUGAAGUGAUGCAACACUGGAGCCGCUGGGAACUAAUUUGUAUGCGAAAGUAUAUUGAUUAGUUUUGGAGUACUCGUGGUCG;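 also: selection with 25 µg/mL kanamycin versus none on LB agar overnight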
Settings: 30 °C
So I've got a bunch of sequences here, and I need their self-splicing fitness (ln) values.
Just the number, please.

Which self-splicing fitness (ln) value belongs to `CACAAGCAAUAUUACGGCAG` ?
-0.587

Try `UCUGAGCAAUAUUACGUUGA` next.
-1.89

Try `GGUAAGCAAUAUUACGGUUA` next.
-0.532

Try `UACCAGCAAUAUUACGAUCC` next.
-1.4

Try `AUGGAGCAAUAUUACGUCUU` next.
-2.52

Try `ACCGAGCAAUAUUACGUUUG` next.
-2.86

Try `AGCAAGCAAUAUUACGCUCG` next.
-2.82

Try `ACAAAGCAAUAUUACGGAAA` next.
-2.26

Try `UUUCAGCAAUAUUACGGCGU` next.
-2.37

Try `AUCCAGCAAUAUUACGUGCC` next.
-3.16

Try `AAUCAGCAAUAUUACGCCUU` next.
0.109

Try `GGGAAGCAAUAUUACGCGUU` next.
-2.67

Try `UGCAAGCAAUAUUACGCCGU` next.
-2.38

Try `GGAAAGCAAUAUUACGCCCA` next.
0.064

Try `GUAGAGCAAUAUUACGCUCA` next.
-0.751

Try `CCUCAGCAAUAUUACGGCGU` next.
-3.42

###

Test: self-splicing fitness, log relative to wild type (ln ratio); higher = more splicing; Tetrahymena group I intron in knt gene, E. coli kanamycin selection, DiMSum; sequences stand for … in CUCUCU…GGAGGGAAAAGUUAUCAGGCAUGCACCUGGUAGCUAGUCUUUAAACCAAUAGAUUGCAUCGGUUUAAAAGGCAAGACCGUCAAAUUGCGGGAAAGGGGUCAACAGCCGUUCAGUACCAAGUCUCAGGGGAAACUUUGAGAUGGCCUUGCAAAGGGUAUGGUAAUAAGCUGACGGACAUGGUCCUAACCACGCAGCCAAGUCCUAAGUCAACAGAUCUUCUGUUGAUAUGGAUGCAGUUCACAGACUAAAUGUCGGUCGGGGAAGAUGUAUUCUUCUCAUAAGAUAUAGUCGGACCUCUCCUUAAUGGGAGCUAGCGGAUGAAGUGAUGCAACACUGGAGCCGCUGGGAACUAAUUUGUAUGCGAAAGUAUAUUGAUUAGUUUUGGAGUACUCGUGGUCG
Conditions: 30 °C
assay.metric: self-splicing fitness (ln)

Which self-splicing fitness (ln) value belongs to `GCGGAGCAAUAUUACGAUUC` ?
-1.32

Try `CGCAAGCAAUAUUACGACCU` next.
-0.793

Try `AACAAGCAAUAUUACGGAGC` next.
-4.22

Try `CAAGAGCAAUAUUACGUUGC` next.
-3.28

Try `AUAGAGCAAUAUUACGAAGC` next.
-2.7

Try `AGGUAGCAAUAUUACGAUUG` next.
-3.58

Try `UAAUAGCAAUAUUACGCAAC` next.
-2.64

Try `UCACAGCAAUAUUACGCUUG` next.
-2.14

Try `UAUGAGCAAUAUUACGAUCU` next.
-1.76

Try `UGGGAGCAAUAUUACGCAUG` next.
-3.28

Try `GCGUAGCAAUAUUACGCUGU` next.
-3.16

Try `GCCGAGCAAUAUUACGUCUU` next.
-2.71

Try `UCGAAGCAAUAUUACGGUAA` next.
-2.11

Try `GUGCAGCAAUAUUACGUCGU` next.
-1.01

Try `UCAAAGCAAUAUUACGCAUC` next.
-3.83

Try `GUAAAGCAAUAUUACGAUGC` next.
-0.312
